Sourced from patent US20230165873A1

TESTED TARGET: PI3K beta (Homo sapiens, UniProt P42338)
Sequence (P42338 whole entry): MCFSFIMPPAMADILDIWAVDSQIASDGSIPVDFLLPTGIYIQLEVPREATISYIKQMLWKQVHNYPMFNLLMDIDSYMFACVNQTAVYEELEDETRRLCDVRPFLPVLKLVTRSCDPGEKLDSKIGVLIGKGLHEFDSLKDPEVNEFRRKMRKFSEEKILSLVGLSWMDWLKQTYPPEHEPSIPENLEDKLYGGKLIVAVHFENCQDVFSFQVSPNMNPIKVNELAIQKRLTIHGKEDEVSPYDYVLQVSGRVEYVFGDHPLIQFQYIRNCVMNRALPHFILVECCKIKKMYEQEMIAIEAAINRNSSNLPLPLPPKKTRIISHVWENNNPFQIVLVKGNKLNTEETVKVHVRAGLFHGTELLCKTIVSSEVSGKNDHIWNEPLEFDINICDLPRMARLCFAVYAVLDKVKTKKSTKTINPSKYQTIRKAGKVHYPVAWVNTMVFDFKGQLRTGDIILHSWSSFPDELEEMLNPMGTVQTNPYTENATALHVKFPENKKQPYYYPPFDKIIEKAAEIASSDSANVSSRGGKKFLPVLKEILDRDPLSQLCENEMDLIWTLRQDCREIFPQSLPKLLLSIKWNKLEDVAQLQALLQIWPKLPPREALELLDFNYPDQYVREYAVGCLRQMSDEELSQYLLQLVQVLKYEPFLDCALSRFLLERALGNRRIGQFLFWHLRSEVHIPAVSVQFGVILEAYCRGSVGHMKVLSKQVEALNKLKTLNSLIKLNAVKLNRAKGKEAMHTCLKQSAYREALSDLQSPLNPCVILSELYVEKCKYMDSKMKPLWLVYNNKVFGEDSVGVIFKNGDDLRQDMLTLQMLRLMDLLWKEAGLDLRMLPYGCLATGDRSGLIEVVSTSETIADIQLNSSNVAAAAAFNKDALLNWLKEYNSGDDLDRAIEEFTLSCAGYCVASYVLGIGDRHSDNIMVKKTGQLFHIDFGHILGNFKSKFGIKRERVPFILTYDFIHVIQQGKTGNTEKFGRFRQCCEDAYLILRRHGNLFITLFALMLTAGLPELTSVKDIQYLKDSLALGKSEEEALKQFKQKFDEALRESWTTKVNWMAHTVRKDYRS
Sequence (P27986 whole entry partner): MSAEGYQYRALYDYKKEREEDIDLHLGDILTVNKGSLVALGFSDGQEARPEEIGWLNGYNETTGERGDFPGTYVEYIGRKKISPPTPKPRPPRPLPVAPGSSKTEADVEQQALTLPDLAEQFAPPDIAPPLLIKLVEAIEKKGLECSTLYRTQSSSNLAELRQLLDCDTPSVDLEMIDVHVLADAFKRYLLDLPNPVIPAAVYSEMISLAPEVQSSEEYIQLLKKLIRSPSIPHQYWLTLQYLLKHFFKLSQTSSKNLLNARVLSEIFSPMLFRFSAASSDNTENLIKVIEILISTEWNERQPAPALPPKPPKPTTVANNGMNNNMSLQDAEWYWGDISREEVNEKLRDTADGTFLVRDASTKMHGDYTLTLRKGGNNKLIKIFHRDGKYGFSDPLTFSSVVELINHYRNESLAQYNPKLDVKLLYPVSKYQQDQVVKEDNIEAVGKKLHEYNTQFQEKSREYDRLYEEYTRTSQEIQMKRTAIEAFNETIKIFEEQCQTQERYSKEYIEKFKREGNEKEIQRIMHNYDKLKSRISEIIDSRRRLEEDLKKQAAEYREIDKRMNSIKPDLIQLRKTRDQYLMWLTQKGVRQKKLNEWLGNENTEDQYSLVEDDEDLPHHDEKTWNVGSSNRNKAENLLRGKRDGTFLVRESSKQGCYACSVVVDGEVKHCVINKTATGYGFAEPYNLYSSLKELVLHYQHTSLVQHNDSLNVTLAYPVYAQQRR
pIC50: −log10 of the molar value.
Known pIC50 of a selection of compounds

Consider the worked cases shown below.
COMPOUND | VALUE
C=CS(=O)(=O)N1CCCc2ccc(-c3csc4c(=O)cc(N5CCOCC5)oc34)cc21 | > 6.30
CC(C)n1c(C(=O)N(C)C)cc2cnc(Nc3ccc(-c4csc5c(=O)cc(N6CCOCC6)oc45)cc3)nc21 | > 6.30
C=CS(=O)(=O)N(C)c1cc(-c2csc3c(=O)cc(N4CCOCC4)oc23)ccc1OC | > 6.30
CN(C)C(=O)c1cc2cnc(Nc3ccc(-c4csc5c(=O)cc(N6CCOCC6)oc45)c(C(=O)O)c3)nc2n1C1CCCC1 [Compound 14] | > 6.30
CNC(=O)c1cc2cnc(Nc3ccc(-c4csc5c(=O)cc(N6CCOCC6)oc45)cc3)nc2n1C1CCCC1 | > 6.30

Value sought: pIC50, system PI3K beta (Homo sapiens, UniProt P42338), item `C=CC(=O)Nc1cc(-c2csc3c(=O)cc(N4CCOCC4)oc23)ccc1OC` . Result: > 6.30

Value sought: pIC50, system PI3K beta (Homo sapiens, UniProt P42338), item `CN(C)C(=O)c1cc2cnc(Nc3ccc(-c4csc5c(=O)cc(N6CCOCC6)oc45)c(C(=O)NCCN)c3)nc2n1C1CCCC1` . Result: > 6.30

Value sought: pIC50, system PI3K beta (Homo sapiens, UniProt P42338), item `CNC(=O)c1cc2cnc(Nc3ccc(C#Cc4csc5c(=O)cc(N6CCOCC6)oc45)cc3)nc2n1C1CCCC1` . Result: > 6.30
